pIC50 values for Tyrosine-protein kinase receptor UFO (Homo sapiens), compiled from several publications.
pIC50: −log10 of the molar value.

# Compound, pIC50
rows = [
    ("COc1cc2nccc(Oc3cnc(NC(=O)c4cn(C5CC5)cc(-c5ccc(F)cc5)c4=O)nc3)c2cc1OC", 8.30),
    ("Cc1cccc(Nc2ncc3c(OC4CCNCC4)ncc([C@H]4CC[C@H](O)CC4)c3n2)c1", "≥ 7.00"),
    ("COC[C@H](C)Nc1ncc2c(C3=CCOCC3)cc([C@H]3CC[C@H](O)CC3)n2n1", "≥ 7.00"),
    ("C[C@@H](Nc1ncc2c(OC3CCOCC3)ncc([C@H]3CC[C@H](O)CC3)c2n1)C(F)F", "6.00 to 7.00"),
    ("COCC(C)Nc1ncc2c(-c3cnn(C4COC4)c3)cc(C3CCNC(=O)C3)n2n1 (mixture of isomers)", "5.00 to 6.00"),
    ("CCC(CC)Nc1ncc2c(=O)n(C3CCNCC3)cc([C@H]3CC[C@H](O)CC3)c2n1", "5.00 to 6.00"),
    ("COCCOc1cc2nccc(Oc3ccc(NC(=O)c4c(O)c(C5=CCOCC5)c(C)[n+](C)c4C)cc3F)c2nc1OC", "≥ 7.00"),
    ("Nc1ncnn2c1c(-c1ccc(NC(=O)c3c4n(n(-c5ccccc5)c3=O)CCOC4)cc1F)cc2[C@H]1CC[C@H](O)CC1", "7.30 to 8.30"),
    ("CC(CC(F)(F)F)Nc1ncc2c(-c3cncc(S(C)(=O)=O)c3)cc(C3CCC(O)CC3)n2n1 (stereo not drawn)", "≥ 7.00"),
    ("Nc1ncc(-c2cnn(C3CCN(C(=O)c4ccccc4)CC3)c2)cc1-c1nnc(-c2c(Cl)cccc2Cl)o1", "> 6.30"),
    ("O=C(Nc1ccc(Oc2ccnc(NC(=O)C3CC3)c2)cn1)c1c2n(n(-c3ccccc3)c1=O)CCC2", 8.15),
    ("CCN1CCN(Cc2ccc(Nc3nc(OCCOC)c4c(-c5ccc(OCc6ncccn6)cc5F)c[nH]c4n3)cc2)CC1", "> 7.52"),
    ("CN1CCN(Cc2ccc(Nc3nc(OCC4CCCO4)c4c(-c5ccc(F)c(Cl)c5)c[nH]c4n3)cc2)CC1 (stereo not drawn)", "> 7.52"),
    ("COc1nc(Nc2ccc(CN3CCC(C)CC3)cc2)nc2[nH]cc(-c3ccc(S(=O)(=O)N(C)C)cc3)c12", "> 7.52"),
    ("Cc1nccc(N2CCC(Oc3ncc([C@H]4CC[C@H](O)CC4)c4nc(N[C@@H](C)CC(F)(F)F)ncc34)CC2)n1", "6.00 to 7.00"),
]

---

IC50 values for Tyrosine-protein kinase receptor UFO (Homo sapiens, UniProt P30530), compiled from several publications.

# Compound, IC50
data = [
    ("CNc1ncc2c(n1)N1CCN=C1C(c1ccc(C(=O)Nc3ccccc3Cl)cc1)=C2", "100 to 10000 nM"),
    ("CCCC(C)Nc1ncc2c(O[C@H]3CC[C@H](O)CC3)ncc([C@H]3CC[C@H](O)CC3)c2n1 (some centres unmarked)", "100 to 1000 nM"),
    ("CNC(=O)c1ncc(-c2cc([C@H]3CC[C@H](O)CC3)n3nc(N[C@@H](C)COC(F)F)ncc23)cn1", "≤ 100 nM"),
    ("CC(C)(C)OC(=O)N1CCC(n2cc(-c3cnc(N)c(-c4nnc(-c5c(Cl)cccc5Cl)o4)c3)cn2)CC1", "500 to 1000 nM"),
    ("CCOc1ncc(CC2CCN(C)CC2)c2nc(N[C@@H](C)CC)ncc12", "1000 to 10000 nM"),
    ("CCCCC[C@H](C)Nc1ncc2c(OC3CCOCC3)ncc([C@H]3CC[C@H](O)CC3)c2n1", "100 to 1000 nM"),
    ("Nc1ncc(-c2cnn(C3CCNCC3)c2)cc1-c1noc(-c2ccccc2)n1", "< 500 nM"),
    ("CCCC(C)Nc1ncc2c(N3CC(N(C)C)C3)ncc([C@H]3CC[C@H](O)CC3)c2n1 (some centres unmarked)", "1000 to 10000 nM"),
]
